- assay-details: Plasma clearance in mouse at 3 mg/kg, iv
- Type: ADME, organism-based
measurement-kind: clearance (mL/min/kg)
# value in mL/min/kg; strip the unit string

The recorded clearance for entry "CCS(=O)(=O)Nc1ccc(Oc2ccc(F)cc2F)c(-c2cn(C)c(=O)c3[nH]ccc23)c1" equals 8.33

====

- assay-details: Apparent oral plasma clearance in human at 1 mg
- Assay type: ADME
measurement-kind: CL/F (mL/min)
Express your answer in mL/min, writing the number without its unit.

CL/F in this record for "CCS(=O)(=O)Nc1ccc(Oc2ccc(F)cc2F)c(-c2cn(C)c(=O)c3[nH]ccc23)c1" : 83.8

====

- target-system: Bromodomain-containing protein 8 (Homo sapiens, UniProt Q9H0E9)
- Sequence (Q9H0E9 whole entry, the tested form may be a part): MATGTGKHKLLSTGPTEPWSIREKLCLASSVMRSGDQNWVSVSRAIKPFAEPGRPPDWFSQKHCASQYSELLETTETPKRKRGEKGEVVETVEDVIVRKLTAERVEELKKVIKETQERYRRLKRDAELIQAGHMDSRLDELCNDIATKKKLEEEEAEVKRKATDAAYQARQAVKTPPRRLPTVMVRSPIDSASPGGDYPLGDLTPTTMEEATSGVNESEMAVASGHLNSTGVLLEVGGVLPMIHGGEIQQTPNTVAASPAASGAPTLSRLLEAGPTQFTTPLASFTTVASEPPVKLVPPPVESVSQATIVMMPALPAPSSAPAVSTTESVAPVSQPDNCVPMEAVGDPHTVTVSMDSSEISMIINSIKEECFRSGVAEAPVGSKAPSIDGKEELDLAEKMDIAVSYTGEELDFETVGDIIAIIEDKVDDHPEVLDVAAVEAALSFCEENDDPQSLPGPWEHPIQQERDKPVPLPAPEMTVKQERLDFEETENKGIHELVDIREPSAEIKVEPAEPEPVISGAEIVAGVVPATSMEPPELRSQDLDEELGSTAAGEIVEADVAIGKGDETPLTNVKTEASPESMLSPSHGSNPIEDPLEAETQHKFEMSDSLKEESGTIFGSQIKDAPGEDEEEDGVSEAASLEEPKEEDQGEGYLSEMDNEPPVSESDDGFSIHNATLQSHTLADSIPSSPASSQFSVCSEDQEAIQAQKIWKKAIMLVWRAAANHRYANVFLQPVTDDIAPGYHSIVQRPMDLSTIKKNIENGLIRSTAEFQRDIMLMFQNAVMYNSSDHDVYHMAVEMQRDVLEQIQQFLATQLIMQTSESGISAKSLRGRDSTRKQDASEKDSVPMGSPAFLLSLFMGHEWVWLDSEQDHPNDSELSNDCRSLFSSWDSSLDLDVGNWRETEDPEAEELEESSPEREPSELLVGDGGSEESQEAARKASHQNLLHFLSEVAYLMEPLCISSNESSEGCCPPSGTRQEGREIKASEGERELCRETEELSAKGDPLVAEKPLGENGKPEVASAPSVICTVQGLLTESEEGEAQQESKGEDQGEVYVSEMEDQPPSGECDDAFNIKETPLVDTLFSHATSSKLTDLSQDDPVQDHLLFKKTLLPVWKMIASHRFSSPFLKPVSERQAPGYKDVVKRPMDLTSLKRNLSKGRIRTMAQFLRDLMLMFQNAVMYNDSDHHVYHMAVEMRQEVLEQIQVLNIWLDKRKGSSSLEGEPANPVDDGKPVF
- assay-details: Binding affinity to human BRD8 (1) (S700 to F854 residues) expressed in mammalian expression system by BROMOscan assay
pKd: −log10 of the molar value.
measurement-kind: pKd

Briefly, pKd measured for CCS(=O)(=O)Nc1ccc(Oc2ccc(F)cc2F)c(-c2cn(C)c(=O)c3[nH]ccc23)c1 [MIVEBRESIB] : < 6.00

====

Answer each item with its documented log10 CL free.
- Test system: Liver
- assay-details: Unbound intrinsic clearance in human liver microsomes at 10 uM preincubated for 5 mins followed by NADPH addition measured after 60 mins by HPLC-UV-MS analysis
- Format: ADME, microsome
- conditions-used: 1 h
Log scale reminder: CL free in mL/min/kg, then log10 taken.

In plain terms, COc1ccc2c(c1)[C@]13CCCC[C@@H]1[C@H](C2)N(C)CC3 [DEXTROMETHORPHAN] has a documented log10 CL free of 2.09

Lab note: "Cn1cc(-c2cc(NS(=O)(=O)CC(F)(F)F)ccc2Oc2ccccc2)c2cc[nH]c2c1=O" gave log10 CL free of 1.67

Reported log10 CL free ( "CCS(=O)(=O)Nc1ccc(Oc2ccc(C#N)cc2)c(-c2cn(C)c(=O)c3[nH]ccc23)c1" ) = 1.62

Short answer for "Cn1cc(-c2cc(NS(C)(=O)=O)cnc2Oc2ccccc2)c2cc[nH]c2c1=O" : log10 CL free was 1.80

Reported log10 CL free of "Cn1cc(-c2cc(NS(C)(=O)=O)ccc2OCc2ccccc2)c2cc[nH]c2c1=O" : 2.09

Item: "Cn1cc(-c2cc(NS(C)(=O)=O)ccc2Oc2ccccc2C(F)(F)F)c2cc[nH]c2c1=O" | log10 CL free: 2.73

// log10 CL free lookup, molecule = "CCS(=O)(=O)Nc1ccc(Oc2c(F)cc(F)cc2F)c(-c2cn(C)c(=O)c3[nH]ccc23)c1" , result: 2.01

====

- assay-details: Oral bioavailability in monkey
- Assay type: ADME, organism-based, Macaca mulatta
- conditions-used: rhesus monkey, in vivo
measurement-kind: bioavailability (%)
The reply should contain only the number, in %.

Noted for "CCS(=O)(=O)Nc1ccc(Oc2ccc(F)cc2F)c(-c2cn(C)c(=O)c3[nH]ccc23)c1" : its bioavailability reads 33

====

- assay-details: Oral bioavailability in rat at 1 mg/kg
- Type: ADME, organism-based
- conditions-used: in vivo
Could you please report measured bioavailability for the items listed next?

Entry under test: "Cn1cc(-c2cc(NS(C)(=O)=O)ccc2Oc2ccccc2)c2cc[nH]c2c1=O" . Its bioavailability was 10%

Reported bioavailability for "CCS(=O)(=O)Nc1ccc(Oc2ccc(F)cc2F)c(-c2cn(C)c(=O)c3[nH]ccc23)c1" was 65%

So, "Cn1cc(-c2cc(NS(C)(=O)=O)ccc2Oc2ccc(F)cc2F)c2cc[nH]c2c1=O" ? Its bioavailability was 40%
